For each entry below, report its polymerase ribozyme fitness (log ratio) value.
B1: TPR 5TU (parent)
chain: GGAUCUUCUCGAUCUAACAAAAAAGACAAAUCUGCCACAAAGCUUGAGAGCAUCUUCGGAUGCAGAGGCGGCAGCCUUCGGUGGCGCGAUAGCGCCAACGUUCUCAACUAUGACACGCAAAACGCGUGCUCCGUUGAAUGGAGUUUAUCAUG

variants of: B1; experiment: polymerase ribozyme fitness, log enrichment relative to wild type (log ratio); higher = more active; in vitro selection for triplet polymerase activity
Fewer inactive variants are shown than the library holds.
Give bare numbers.

MUTATION ID: G117U G143A
polymerase ribozyme fitness (log ratio): -0.982

Could I get polymerase ribozyme fitness (log ratio) for every one of these entries?
1. G86C G117A
2. A47U C85G
3. A41U U144G

stdout:
-1.84
-2.65
0.164

Hey, just so you know, these numbers are from the RNAGym collection of RNA variant scans (doi:10.1073/pnas.2313332121).
